# abundance fitness values compiled below
B1: Chromodomain-helicase-DNA-binding protein 4, residues 365 to 417; numbered along this chain, Q14839 (parent)
chain: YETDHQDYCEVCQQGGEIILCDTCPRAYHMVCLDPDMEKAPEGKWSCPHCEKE

variants of: B1; experiment: abundance fitness (aPCA) (normalised: wild type 0, dead -1); higher = more abundant; growth selection in yeast, the domain comes from the species named; conditions: Homo sapiens

>  <mutation spec>
M37D

>  <abundance fitness>
-0.451

$$$$
>  <mutation spec>
K39F

>  <abundance fitness>
-0.472

$$$$
>  <mutation spec>
V11K

>  <abundance fitness>
0.127

$$$$
>  <mutation spec>
E53A

>  <abundance fitness>
-0.207

$$$$
>  <mutation spec>
W45I

>  <abundance fitness>
0.057

$$$$
>  <mutation spec>
M37F

>  <abundance fitness>
0.24

$$$$
>  <mutation spec>
D34N

>  <abundance fitness>
-0.091

$$$$
>  <mutation spec>
R26W

>  <abundance fitness>
-0.791

$$$$
>  <mutation spec>
A27Y

>  <abundance fitness>
0.086

$$$$
>  <mutation spec>
D34C

>  <abundance fitness>
0.018

$$$$
>  <mutation spec>
G43C

>  <abundance fitness>
-0.217

$$$$
>  <mutation spec>
C50R

>  <abundance fitness>
-0.555

$$$$
